# Test system: 454973-116-R2-J3-PDC spheroids, viability, % test/control
# RUN_DESCRIPTION: Anticancer human tumor 454973-116-R2-J3-PDC patient-derived pancreatic carcinoma cell line growth inhibition [GQUAD]
# CONDITION_DESCRIPTION: second compound 10 µM; first compound 1 µM; stronger effect = lower value; spheroids with HUVEC and MSC

COMPOUND	viability, T/C / %
CC1COCCN1c1cc(C2(O)CC3CCC(C2)O3)c2cnn(-c3ccn[nH]3)c2n1 (stereo unspecified) + Cc1[nH]c2ccc(F)cc2c1-c1nc2c3cccnc3c3ncccc3c2[nH]1	22.4
CC1COCCN1c1cc(C2(S(C)(=N)=O)CC2)nc(-c2ccnc3[nH]ccc23)n1 (stereo unspecified) + Cc1cnc(CNC(=O)c2c(=O)c3ccc(N4CCCN(C)CC4)nc3n3c2sc2ccccc23)cn1	0.88
CC1COCCN1c1cc(C2(O)CC3CCC(C2)O3)c2cnn(-c3ccn[nH]3)c2n1 (stereo unspecified) + CN(C)c1ccc(Nc2c3ccc(NC(=O)CCN4CCCC4)cc3nc3cc(NC(=O)CCN4CCCC4)ccc23)cc1	24.4
CC(C)n1c(=O)n(C)c2cnc3cc(F)c(-c4ccc(OCCCN5CCCCC5)nc4)cc3c21 + Cc1cnc(CNC(=O)c2c(=O)c3ccc(N4CCCN(C)CC4)nc3n3c2sc2ccccc23)cn1	0.33
COc1cccc2c1C(=O)c1c(O)c3c(c(O)c1C2=O)CC(O)(C(=O)CO)CC3OC1CC(N)C(O)C(C)O1 (stereo unspecified) + CN(C)c1ccc(Nc2c3ccc(NC(=O)CCN4CCCC4)cc3nc3cc(NC(=O)CCN4CCCC4)ccc23)cc1	47.2
CC(C)(O)C1CCC(Nc2ccc3ncc(-c4cccc(C(F)(F)F)c4)n3n2)CC1 (stereo unspecified) + Cc1cnc(CNC(=O)c2c(=O)c3ccc(N4CCCN(C)CC4)nc3n3c2sc2ccccc23)cn1	0.58
Nc1ccn(C2OC(CO)C(O)C2(F)F)c(=O)n1 (stereo unspecified) + CN(C)c1ccc(Nc2c3ccc(NC(=O)CCN4CCCC4)cc3nc3cc(NC(=O)CCN4CCCC4)ccc23)cc1	17.6
COc1ccc([C@@H](O)c2cc(-c3ncnc4cc(N5CCOCC5)ccc34)c(F)cc2Cl)nn1 + Cc1cnc(CNC(=O)c2c(=O)c3ccc(N4CCCN(C)CC4)nc3n3c2sc2ccccc23)cn1	0.39
C=CCn1c(=O)c2cnc(Nc3ccc(N4CCN(C)CC4)cc3)nc2n1-c1cccc(C(C)(C)O)n1 + Cc1[nH]c2ccc(F)cc2c1-c1nc2c3cccnc3c3ncccc3c2[nH]1	14.1
O=C(c1cc(Cc2n[nH]c(=O)c3ccccc23)ccc1F)N1CCN(C(=O)C2CC2)CC1 + Cc1[nH]c2ccc(F)cc2c1-c1nc2c3cccnc3c3ncccc3c2[nH]1	79.6
C#Cc1c(F)ccc2cc(O)cc(-c3ncc4c(N5CC6CCC(C5)N6)nc(OCC56CCCN5CC(F)C6)nc4c3F)c12 (stereo unspecified) + Cc1cnc(CNC(=O)c2c(=O)c3ccc(N4CCCN(C)CC4)nc3n3c2sc2ccccc23)cn1	0.12

----------
# Test system: 454973-116-R2-J3-PDC spheroids, viability, % test/control
# RUN_DESCRIPTION: Anticancer human tumor 454973-116-R2-J3-PDC cell line growth inhibition [GQUAD]; active = viability on the fitted dose curve at most 10% of control; inactive = the rest;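 note: spheroids exposed to compounds for seven days; 100% = DMSO vehicle control viability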
# CONDITION_DESCRIPTION: second compound 10 µM; first compound 0.316 µM; spheroids with HUVEC and MSC
Labels: true (1) (active), false (0) (inactive)

COMPOUND	CLASS_ASSIGNMENT
CC1COCCN1c1cc(C2(O)CC3CCC(C2)O3)c2cnn(-c3ccn[nH]3)c2n1 (stereo unspecified) + CN(C)c1ccc(Nc2c3ccc(NC(=O)CCN4CCCC4)cc3nc3cc(NC(=O)CCN4CCCC4)ccc23)cc1	false (0)
O=C(NO)c1cnc(N2CCN(S(=O)(=O)c3ccc4ccccc4c3)CC2)nc1 + CN(C)c1ccc(Nc2c3ccc(NC(=O)CCN4CCCC4)cc3nc3cc(NC(=O)CCN4CCCC4)ccc23)cc1	false (0)
Cc1cccc(N(C)C(=O)C2C(O)CCN2c2nc(C)cc(C(F)(F)F)c2C#N)c1 (stereo unspecified) + Cc1cnc(CNC(=O)c2c(=O)c3ccc(N4CCCN(C)CC4)nc3n3c2sc2ccccc23)cn1	false (0)
COc1ccc([C@@H](O)c2cc(-c3ncnc4cc(N5CCOCC5)ccc34)c(F)cc2Cl)nn1 + Cc1cnc(CNC(=O)c2c(=O)c3ccc(N4CCCN(C)CC4)nc3n3c2sc2ccccc23)cn1	true (1)
CC1COCCN1c1cc(C2(S(C)(=N)=O)CC2)nc(-c2ccnc3[nH]ccc23)n1 (stereo unspecified) + Cc1[nH]c2ccc(F)cc2c1-c1nc2c3cccnc3c3ncccc3c2[nH]1	false (0)
CC1COCCN1c1cc(C2(O)CC3CCC(C2)O3)c2cnn(-c3ccn[nH]3)c2n1 (stereo unspecified) + Cc1[nH]c2ccc(F)cc2c1-c1nc2c3cccnc3c3ncccc3c2[nH]1	false (0)
C=CCn1c(=O)c2cnc(Nc3ccc(N4CCN(C)CC4)cc3)nc2n1-c1cccc(C(C)(C)O)n1 + Cc1cnc(CNC(=O)c2c(=O)c3ccc(N4CCCN(C)CC4)nc3n3c2sc2ccccc23)cn1	true (1)
CC[C@@]1(O)C(=O)OCc2c1cc1n(c2=O)Cc2cc3c(CN(C)C)c(O)ccc3nc2-1 + Cc1[nH]c2ccc(F)cc2c1-c1nc2c3cccnc3c3ncccc3c2[nH]1	false (0)
Cc1cccc(N(C)C(=O)C2C(O)CCN2c2nc(C)cc(C(F)(F)F)c2C#N)c1 (stereo unspecified) + Cc1[nH]c2ccc(F)cc2c1-c1nc2c3cccnc3c3ncccc3c2[nH]1	false (0)
CC1COCCN1c1cc(C2(O)CC3CCC(C2)O3)c2cnn(-c3ccn[nH]3)c2n1 (stereo unspecified) + Cc1cnc(CNC(=O)c2c(=O)c3ccc(N4CCCN(C)CC4)nc3n3c2sc2ccccc23)cn1	true (1)
COc1ccc([C@@H](O)c2cc(-c3ncnc4cc(N5CCOCC5)ccc34)c(F)cc2Cl)nn1 + Cc1[nH]c2ccc(F)cc2c1-c1nc2c3cccnc3c3ncccc3c2[nH]1	false (0)
